# Method: Cell Viability - LYMP2-001 (AID 921);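 note: cells exposed to compound for 24 h at 37 °C; nearly all actives have a fitted effect of over 70% in size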
# Condition context: LYMP2-001 lymphoblastoid cell viability; series mostly up to 92.2 µM
# Description: NIH Chemical Genomics Center [NCGC] NIH Molecular Libraries Screening Centers Network [MLSCN] National Institutes of Environmental Health Sciences [NIEHS] National Toxicology Program [NTP] We have developed a 1536-well cell-based assay for quantitative high throughput screening (qHTS) against a number of cell lines to determine in vitro cytotoxicity of small molecules. […] 8. Detection; Luminescence; Viewlux plate reader […]
Inconclusive results are not listed. Calls of active or inactive are those of the source. Calls come from the whole dose curve; as a rule, active = well fitted cell-killing curve with a large enough effect; inconclusive = small, poorly fitted or top-dose-only effect; inactive = no such curve, though single readings can be large or run the other way.
Classes used: true = active, false = inactive

Molecule	Assigned category
O=[N+]([O-])C(Br)Br	true
O=Nc1ccc(Nc2ccccc2)cc1	true
C[C@@H]1CC[C@@]2(OC1)O[C@H]1[C@@H](O)[C@H]3[C@@H]4CC[C@H]5C[C@@H](O[C@@H]6O[C@H](CO)[C@H](O[C@@H]7O[C@H](CO)[C@@H](O)[C@H](O[C@@H]8OC[C@@H](O)[C@H](O)[C@H]8O)[C@H]7O[C@@H]7O[C@H](CO)[C@@H](O)[C@H](O[C@@H]8O[C@H](CO)[C@@H](O)[C@H](O)[C@H]8O)[C@H]7O)[C@H](O)[C@H]6O)[C@H](O)C[C@]5(C)[C@H]4CC[C@]3(C)[C@H]1[C@@H]2C	true
Oc1c(Br)c(Br)c(Br)c(Br)c1Br	false
N#CC(Cl)Cl	true
N#CSCSC#N	true
O=C(O)C1C(C(=O)O)C2(Cl)C(Cl)=C(Cl)C1(Cl)C2(Cl)Cl (configuration not stated)	false
OC(c1ccc(Cl)cc1)(c1ccc(Cl)cc1)C(Cl)(Cl)Cl	false
FC(F)(F)c1ccc(Cl)cc1	false
Nc1ccccc1C(=O)OCCc1ccccc1	false
c1cc(OCC2CO2)cc(OCC2CO2)c1 (configuration not stated)	true
Clc1ccc(C(c2ccc(Cl)cc2)C(Cl)Cl)cc1	false
